Values were extracted from PubChem BioAssay (NCI).

System: MDA-N
Test: NCI tumour cell line growth inhibition, 48 h
property.label: TGI

Consider the following illustrative entries.
| compound | TGI |
| --- | --- |
| O=c1[nH]c2nccn2c2c1SCCN2 | > 100 µM |
| CO/N=C(\C([O-])=N\[n+]1cnn(CC(=O)OC(C)(C)C)c1)c1csc(NC(c2ccccc2)(c2ccccc2)c2ccccc2)n1 | > 10 µM |
| O=C(c1cccnc1)N1N=C(c2ccccc2)CC1(O)c1cc(F)c(Cl)cc1Cl (centres undefined) | > 100 µM |

Then this compound:
Query string: Name the recorded TGI for CN1Cc2cc(O)c(O)cc2C(O)C1 (centres undefined) .
Result string: > 100 µM

---

Test system: M14 melanoma
Assay: NCI tumour cell line growth inhibition, 48 h
property.label: TGI (µM)
The figure you give is taken to be in µM; do not add the unit.

Consider the following illustrative entries.
| compound | assay.value |
| --- | --- |
| Nc1nc2cc(CC[C@H]3C[C@@H](n4ccc5c(N)ncnc54)[C@H](O)[C@@H]3O)ccc2cc1Br | 25.6 |
| COC(=O)C1CC(OC(C)=O)C=C2C(=O)CCC21 (stereo not given) | 50.2 |
| Cc1ccc2c(c1)C(=O)c1c-2c(OCCCN(C)C)nc2ccccc12 | 3.23 |

Query string: Name the recorded TGI for ClCc1ccccc1Cn1cnc2c(Cl)ncnc21 .
Result string: 3.74

---

Test system: SK-OV-3 ovarian
Assay: NCI tumour cell line growth inhibition, 48 h; in the data active = GI50 below about 0.43 µM; inactive = the rest
# valid calls are active, inactive; nothing else

Reference set, count: 5
| molecule | system | cat |
| --- | --- | --- |
| CCCCCCCC(=O)SCC/C=C/[C@@H]1CC(=O)NCc2nc(cs2)C2=N[C@@](C)(CS2)C(=O)N[C@@H](C(C)C)C(=O)N1 | SK-OV-3 ovarian | active |
| C[C@]12CC[C@H]3[C@@H](CC4SC(N)=NC45C/C(=N/NC(N)=O)CC[C@]35C)[C@@H]1CCC2=O (stereo partly specified) | SK-OV-3 ovarian | inactive |
| CC(=O)O[C@H]1C(=O)[C@@]2(C)[C@H]([C@H](OC(=O)c3ccccc3)[C@]3(O)C[C@H](OC(=O)[C@H](OC(=O)OC[C@H]4COC(C)(C)O4)[C@@H](NC(=O)c4ccccc4)c4ccccc4)C(C)=C1C3(C)C)[C@]1(OC(C)=O)CO[C@@H]1C[C@@H]2O | SK-OV-3 ovarian | active |
| COc1cc(C(=O)O[C@H](C(=O)NCCN(C)CCNC(=O)[C@@H](OC(=O)c2cc(OC)cc3c(C)cccc23)[C@]2(C)CO2)[C@]2(C)CO2)c2cccc(C)c2c1 | SK-OV-3 ovarian | inactive |
| C=C1C(=O)O[C@H]2[C@H]1CC/C(Cn1cc(-c3ccc(F)cc3)nn1)=C\CC[C@@]1(C)O[C@@H]21 | SK-OV-3 ovarian | inactive |

Query string: Could you check what this test reported for NC(N)=NC(N)=NCCCc1ccco1 ?
Result string: inactive

---

Below: a set of entries, each annotated with reported TGI.
Tested on: IGROV1 ovarian
Assay: NCI tumour cell line growth inhibition, 48 h

| compound | assay.value |
| --- | --- |
| Cc1nc2ccccn2c1NC(=O)NNC(=S)Nc1ccc(F)cc1 | > 100 µM |
| CC(C(=O)c1ccncc1)c1ccccn1 (centres undefined) | > 100 µM |
| O=C(Nc1ccccc1Cl)c1ccc([N+](=O)[O-])cc1 | > 100 µM |
| Cc1[nH]c2ccccc2c1/C=N/NC(=O)c1cccc(I)c1 | 75.3 µM |

Query string: Name the recorded TGI for Cc1ccc(S(=O)(=O)OC(COC(=O)c2ccccc2)C(OS(=O)(=O)c2ccc(C)cc2)C(OS(=O)(=O)c2ccc(C)cc2)C(COC(=O)c2ccccc2)OS(=O)(=O)c2ccc(C)cc2)cc1 (centres undefined) .
Result string: > 10 µM

Query string: Name the recorded TGI for CC(=O)O[C@H]1C(=O)[C@@]2(C)[C@H]([C@H](OC(=O)c3ccccc3)[C@]3(O)C[C@H](OC(=O)[C@H](O)[C@@H](NC(=O)c4ccccc4)c4cccc(N(C)C)c4)C(C)=C1C3(C)C)[C@]1(OC(C)=O)CO[C@@H]1C[C@@H]2O .
Result string: > 75 µM

Query string: Name the recorded TGI for C=C1C(=O)O[C@H]2[C@H]1CC/C(Cn1cc(-c3ccc(F)cc3)nn1)=C\CC[C@@]1(C)O[C@@H]21 .
Result string: 2.64 µM

---

Test system: NCI-H23 lung
Assay: NCI tumour cell line growth inhibition, 48 h
property.label: GI50

| compound | GI50 |
| --- | --- |
| C=C1SC(=Nc2ccccc2Cl)N(C(=O)c2sc3ccccc3c2Cl)C12CCCCC2 | 4.43 µM |
| CC(C)c1cccc(O)c(=O)c1 | 35 µg/mL |
| COc1ccc(NC(=O)c2sc3nc(C)c(C(=O)/C=C/c4cccc(OC)c4)cc3c2N)cc1 | 2.35 µM |
| O=C1C(=O)c2ccccc2C(O)=C1CCCc1ccc(C2CCCCC2)cc1 | 4.14 µM |
| COC(=O)c1c2c(c(C)[n+]([O-])c1C)C(=O)C=C(NCc1cccc(Cl)c1)C2=O | 0.463 µM |

Query string: Name the recorded GI50 for Cc1ccc2c(c1)C(=O)c1c-2c(OCCCN(C)C)nc2ccccc12 .
Result string: 1.66 µM

Query string: Name the recorded GI50 for O=C(c1ccccc1)c1c(C(F)(F)F)n([O-])c2cc(C(F)(F)F)ccc2[n+]1=O .
Result string: 1.54 µM

Query string: Name the recorded GI50 for CN(C)CCCC1(c2ccc(F)cc2)OCc2cc(-c3cc4ccccc4s3)ccc21 (stereo not drawn) .
Result string: 1.76 µM

---

Tested on: IGROV1 ovarian
Assay: NCI tumour cell line growth inhibition, 48 h; in the data active = GI50 below about 0.43 µM; inactive = the rest
# valid calls are active, inactive; nothing else

| compound | cat |
| --- | --- |
| O=C(c1ccccc1)c1c(C(F)(F)F)n([O-])c2cc(C(F)(F)F)ccc2[n+]1=O | active |
| COC(=O)c1c2c(c(C)[n+]([O-])c1C)C(=O)C=C(NCc1cccc(Cl)c1)C2=O | active |
| COc1ccc(NC(=O)c2sc3nc(C)c(C(=O)/C=C/c4cccc(OC)c4)cc3c2N)cc1 | inactive |
| C=C1C(=O)O[C@H]2[C@H]1CC/C(COC(=O)OC/C1=C/CC[C@@]3(C)O[C@H]3[C@H]3OC(=O)[C@@H](CN(C)C)[C@@H]3CC1)=C\CC[C@@]1(C)O[C@@H]21 | inactive |
| CC([C@H]1CC=C2C3CCC4=C[C@@H](N(C)C)CC[C@]4(C)C3CC[C@@]21C)N(C)C (some centres not stated) | inactive |
| C[n+]1c2ccccc2nc2ccccc21 | inactive |

Consider the additional compound presented here.
Query string: Could you check what this test reported for NC(N)=NC(N)=NCCCc1ccco1 ?
Result string: inactive

---

System: RXF 393 renal
Assay: NCI tumour cell line growth inhibition, 48 h
property.label: TGI (µM)
The figure you give is taken to be in µM; do not add the unit.

Consider the following illustrative entries.
| compound | property.label | unit.abbrev | assay.value |
| --- | --- | --- | --- |
| COC(=O)[C@]1(c2cc3ccccc3[nH]2)CC2CN(C(=O)OCc3ccccc3)C1CC2=O (some centres undefined) | TGI | µM | 68.2 |
| O=C(/C=C1\C(=O)N(Cc2ccccc2)c2ccccc21)c1ccc(OCCN2CCCCC2)cc1 | TGI | µM | 3.17 |
| CCOC(=O)/C=C(\C(=O)OCC)n1cc(Cl)c(=O)n(CC(=O)OCC)c1=O | TGI | µM | 3.77 |

Query string: Name the recorded TGI for O=C(N/N=C\c1cccc2ccccc12)Nc1cccc2ccccc12 .
Result string: 43.4

Query string: Name the recorded TGI for CCCCc1c2cnccc2c(CCCC)c2c1[nH]c1ccccc12 .
Result string: 24.9

Query string: Name the recorded TGI for CC(=O)O[C@H]1C(=O)[C@@]2(C)[C@H]([C@H](OC(=O)c3ccccc3)[C@]3(O)C[C@H](OC(=O)[C@H](O)[C@@H](NC(=O)c4ccccc4)c4cccc(N(C)C)c4)C(C)=C1C3(C)C)[C@]1(OC(C)=O)CO[C@@H]1C[C@@H]2O .
Result string: 1.24

Query string: Name the recorded TGI for COC1=CC(c2ccc[nH]2)=N/C1=C\c1[nH]c(C)c(CC(=O)OCc2ccccc2)c1C .
Result string: 2.07

Query string: Name the recorded TGI for Cn1nc(C(F)(F)F)c(-c2cc(C(F)(F)F)cc(C(F)(F)F)c2)c1-c1ccc(OCc2ccc(Cl)cc2)cc1O .
Result string: 6.76

---

Tested on: COLO 205 colon
Test: NCI tumour cell line growth inhibition, 48 h
property.label: TGI (µM)
The figure you give is taken to be in µM; do not add the unit.

Query string: Name the recorded TGI for CC(=O)NC(CSC1=C2NC(=O)\C=C/C=C/C=C\C(C)C(O)CC(=O)/C(C)=C\CC(O)/C=C/C(C)C(O)C(C)C=C(C)C(=O)c3c(O)c(C)cc(c3C1=O)C2=O)C(=O)O (stereo not drawn) .
Result string: 79.6

Query string: Name the recorded TGI for COC(=O)C1CC(OC(C)=O)C=C2C(=O)CCC21 (stereo not drawn) .
Result string: 34.4

Query string: Name the recorded TGI for COc1ccc(-c2ncn(C[Si](C)(C)C)c2-c2ccc(OC)cc2)cc1 .
Result string: 11.7

Query string: Name the recorded TGI for Cn1c(-c2ccccc2)c(/C=C/C2=[N+](C)c3ccccc3C2(C)C)c2ccccc21 .
Result string: 2.47
